test system: SK-OV-3 ovarian; assay: NCI tumour cell line growth inhibition, 48 h
PROPERTY LABEL: TGI

[
  {
    "COMPOUND": "Cc1ccc2cccc(OC(=O)Nc3cccc(C(F)(F)F)c3)c2n1",
    "ASSAY SYSTEM": "SK-OV-3 ovarian",
    "EXPERIMENTAL RESULT": "16.2 µM"
  },
  {
    "COMPOUND": "Cn1cc(C2=C(c3cn(-c4ccccc4)c4ccccc34)C(=O)NC2=O)c2ccccc21",
    "ASSAY SYSTEM": "SK-OV-3 ovarian",
    "EXPERIMENTAL RESULT": "> 25 µM"
  },
  {
    "COMPOUND": "COC1=C(C)C(=O)c2c(c(CCCl)c3n2CCC3OC(C)=O)C1=O (configuration not stated)",
    "ASSAY SYSTEM": "SK-OV-3 ovarian",
    "EXPERIMENTAL RESULT": "0.983 µM"
  },
  {
    "COMPOUND": "NS(=O)(=O)c1ccc(NC(=O)Cc2nc3ccccc3s2)cc1",
    "ASSAY SYSTEM": "SK-OV-3 ovarian",
    "EXPERIMENTAL RESULT": "40.5 µM"
  },
  {
    "COMPOUND": "O=C1C2CCCCC2C(=O)N1n1c(-c2ccccc2)n[nH]c1=O (configuration not stated)",
    "ASSAY SYSTEM": "SK-OV-3 ovarian",
    "EXPERIMENTAL RESULT": "> 100 µM"
  },
  {
    "COMPOUND": "CC(NCc1c(O)ccc2ccc(=O)oc12)C(=O)O (configuration not stated)",
    "ASSAY SYSTEM": "SK-OV-3 ovarian",
    "EXPERIMENTAL RESULT": "> 100 µM"
  },
  {
    "COMPOUND": "Cc1ccc(OCC2OC(n3cnc4nc(Nc5ccc(Cl)c(Cl)c5)nc(Cl)c43)CC2Oc2ccc(C)cc2)cc1 (configuration not stated)",
    "ASSAY SYSTEM": "SK-OV-3 ovarian",
    "EXPERIMENTAL RESULT": "> 100 µM"
  },
  {
    "COMPOUND": "O=C(NNC1=NCCCN1)c1ccco1",
    "ASSAY SYSTEM": "SK-OV-3 ovarian",
    "EXPERIMENTAL RESULT": "> 100 µM"
  },
  {
    "COMPOUND": "CCOC(=O)C(NC(C)=O)(Nc1ccc(S(N)(=O)=O)cc1)C(F)(F)F (configuration not stated)",
    "ASSAY SYSTEM": "SK-OV-3 ovarian",
    "EXPERIMENTAL RESULT": "> 100 µM"
  },
  {
    "COMPOUND": "CN(C)CCCSc1ccccc1NC1=C(Cl)C(=O)C(Nc2ccccc2SCCCN(C)C)=C(Cl)C1=O",
    "ASSAY SYSTEM": "SK-OV-3 ovarian",
    "EXPERIMENTAL RESULT": "25 µM"
  },
  {
    "COMPOUND": "O=C(/C=C/c1ccccc1O)c1ccc([N+](=O)[O-])cc1",
    "ASSAY SYSTEM": "SK-OV-3 ovarian",
    "EXPERIMENTAL RESULT": "70.7 µM"
  },
  {
    "COMPOUND": "O=C(O)c1ccccc1CC1Cc2cc3c(cc2C1)CCC3",
    "ASSAY SYSTEM": "SK-OV-3 ovarian",
    "EXPERIMENTAL RESULT": "> 100 µM"
  },
  {
    "COMPOUND": "CCCCCCCCCCCCCCCCCCNc1ccn(C2OC(CO)C(OP(=O)(O)OCC(O)COP(=O)(O)OCC3OC(n4cc(F)c(NCCCCCCCCCCCCCCCCCC)nc4=O)CC3O)C2O)c(=O)n1 (configuration not stated)",
    "ASSAY SYSTEM": "SK-OV-3 ovarian",
    "EXPERIMENTAL RESULT": "> 50 µM"
  },
  {
    "COMPOUND": "COc1cccc(-c2cc(=O)c3cc(N4CCOCC4)ccc3[nH]2)c1",
    "ASSAY SYSTEM": "SK-OV-3 ovarian",
    "EXPERIMENTAL RESULT": "36.8 µM"
  },
  {
    "COMPOUND": "Clc1cc(Cl)c2cc3cccc[n+]3cc2c1Cl",
    "ASSAY SYSTEM": "SK-OV-3 ovarian",
    "EXPERIMENTAL RESULT": "30.1 µM"
  },
  {
    "COMPOUND": "CC(=O)O[C@H]1CCN2C(=O)C=CC(OCc3ccccc3)C12 (some centres not stated)",
    "ASSAY SYSTEM": "SK-OV-3 ovarian",
    "EXPERIMENTAL RESULT": "> 100 µM"
  },
  {
    "COMPOUND": "CCOC(=O)Cc1nnc2n(-c3ccccc3)c(=O)c3ccccc3n12",
    "ASSAY SYSTEM": "SK-OV-3 ovarian",
    "EXPERIMENTAL RESULT": "> 100 µM"
  },
  {
    "COMPOUND": "CC(=O)NCCCCN(CCCNC(C)=O)C(=O)CNS(=O)(=O)c1cccc2c(N(C)C)cccc12",
    "ASSAY SYSTEM": "SK-OV-3 ovarian",
    "EXPERIMENTAL RESULT": "> 100 µM"
  },
  {
    "COMPOUND": "O=C(c1ccc(C(F)(F)F)c(Cl)c1)N(Cc1ccc(Cl)cc1)c1ccc(-c2cc(C(F)(F)F)[nH]n2)c(O)c1",
    "ASSAY SYSTEM": "SK-OV-3 ovarian",
    "EXPERIMENTAL RESULT": "4.89 µM"
  },
  {
    "COMPOUND": "CN/C=C(\\C(=O)c1ccc(OC)c(OC)c1)c1ccc(OC)cc1",
    "ASSAY SYSTEM": "SK-OV-3 ovarian",
    "EXPERIMENTAL RESULT": "> 100 µM"
  },
  {
    "COMPOUND": "CC1C(=O)CC(c2cccs2)N(N=O)C1c1cccs1 (configuration not stated)",
    "ASSAY SYSTEM": "SK-OV-3 ovarian",
    "EXPERIMENTAL RESULT": "> 81.2 µM"
  },
  {
    "COMPOUND": "CCN(CC)CC(C)C(=O)/C=C/c1ccc(C)cc1 (configuration not stated)",
    "ASSAY SYSTEM": "SK-OV-3 ovarian",
    "EXPERIMENTAL RESULT": "30.7 µM"
  }
]

----------
tested on: SN12C renal; test: NCI tumour cell line growth inhibition, 48 h
PROPERTY LABEL: TGI (µM)

[
  {
    "MOLECULE": "COc1ccc(-c2nc3c(nc2-c2ccc(OC)cc2)C(N)=NS(=O)(=O)N3)cc1",
    "UNITS LABEL": "µM",
    "BOUND TYPE": ">",
    "EXPERIMENTAL RESULT": 100
  },
  {
    "MOLECULE": "CCOC(=O)C1(C/C=C/CCl)CCCC1=O (stereo not given)",
    "UNITS LABEL": "µM",
    "BOUND TYPE": "=",
    "EXPERIMENTAL RESULT": 59.1
  },
  {
    "MOLECULE": "CC(=O)OCC1OC(N2C(c3ccccc3)=CC(c3ccco3)C(C#N)=C2S)C(OC(C)=O)C(OC(C)=O)C1OC(C)=O (stereo not given)",
    "UNITS LABEL": "µM",
    "BOUND TYPE": "=",
    "EXPERIMENTAL RESULT": 26.2
  },
  {
    "MOLECULE": "COC(=O)c1ccc(/C=C(\\c2ccc([N+](=O)[O-])o2)S(=O)(=O)c2ccc(NC(C)=O)cc2)o1",
    "UNITS LABEL": "µM",
    "BOUND TYPE": "=",
    "EXPERIMENTAL RESULT": 1.36
  },
  {
    "MOLECULE": "COc1ccccc1C(=O)NO",
    "UNITS LABEL": "µM",
    "BOUND TYPE": ">",
    "EXPERIMENTAL RESULT": 100
  }
]

----------
test system: SF-295 CNS; assay: NCI tumour cell line growth inhibition, 48 h

[
  {
    "COMPOUND": "CC1(C)N=C(N)N=C(N)N1c1ccc(OCCCNC(=O)Nc2cccc(S(=O)(=O)F)c2)c(Cl)c1",
    "TGI": "> 100 µM"
  },
  {
    "COMPOUND": "O=C1CSC(c2ccccc2)N1c1ccc(-n2c(-c3ccccc3)nc3ccccc3c2=O)cc1 (stereo not given)",
    "TGI": "> 100 µM"
  },
  {
    "COMPOUND": "CC(=O)OCCOCNC(=S)N/N=C/c1cc([N+](=O)[O-])ccc1O",
    "TGI": "> 100 µM"
  },
  {
    "COMPOUND": "COc1ccc(C2CC(c3ccc(Nc4ccnc5cc(Cl)ccc45)cc3)=NN2C=O)cc1 (stereo not given)",
    "TGI": "> 100 µM"
  },
  {
    "COMPOUND": "O=C1Cc2nc(CO)c(CO)c(CO)c2CO1",
    "TGI": "> 100 µM"
  },
  {
    "COMPOUND": "Cc1c2c(nc3ccccc13)C(=O)c1cccnc1C2=O",
    "TGI": "97.1 µM"
  },
  {
    "COMPOUND": "C#Cc1cccc(Nc2ncnc3ccc(OCCCCNCCS(C)(=O)=O)cc23)c1",
    "TGI": "> 25 µM"
  },
  {
    "COMPOUND": "O=C1CC(c2ccccc2)Cc2nc3ccc(Br)cc3cc21 (stereo not given)",
    "TGI": "28.3 µM"
  },
  {
    "COMPOUND": "O/N=C(/CC(O)(C(F)(F)F)C(F)(F)F)c1ccccc1",
    "TGI": "> 10 µM"
  },
  {
    "COMPOUND": "O=C(NCCCl)Nc1cccnc1",
    "TGI": "94.5 µM"
  },
  {
    "COMPOUND": "CC(C)(C)c1cc(CCCCCCCC2(CCCCCCCc3cc(C(C)(C)C)cc(C(C)(C)C)c3)OC(COCCOCCCCCC#N)C(COCCOCCCCCC#N)O2)cc(C(C)(C)C)c1 (stereo not given)",
    "TGI": "> 100 µM"
  },
  {
    "COMPOUND": "CCCCNS(=O)(=O)c1n[nH]c(=O)[nH]c1=O",
    "TGI": "> 100 µM"
  },
  {
    "COMPOUND": "CC(C)(C)C1CCC2c3c([nH]c4ccccc34)C3C(=O)N(c4ccccc4Cl)C(=O)C3C2C1 (stereo not given)",
    "TGI": "57.2 µM"
  },
  {
    "COMPOUND": "C=CC(=O)N1C[C@@H]2CCOc3c(Cl)c(-c4c(O)cccc4F)c(F)c4ncnc(c34)N2C[C@H]1C",
    "TGI": "32.5 µM"
  },
  {
    "COMPOUND": "O=C(Oc1c(Cl)cc(C2(c3cc(Cl)c(OC(=O)c4ccccc4)c(Cl)c3)CCCCC2)cc1Cl)c1ccccc1",
    "TGI": "28.6 µM"
  },
  {
    "COMPOUND": "N/N=C(\\c1nc2ccc([N+](=O)[O-])cc2[nH]c1=O)C(O)c1ccc(Cl)c(Cl)c1 (stereo not given)",
    "TGI": "> 100 µM"
  },
  {
    "COMPOUND": "NS(=O)(=O)c1ccc(Nc2c3ccccc3nc3c(C(=O)N4CCN(CCO)CC4)cccc23)cc1",
    "TGI": "> 100 µM"
  },
  {
    "COMPOUND": "CNC(=O)C1(C#N)C(c2ccccc2)C(C#N)(C(=O)NC)C1c1ccccc1 (stereo not given)",
    "TGI": "> 100 µM"
  },
  {
    "COMPOUND": "Cn1c(=O)c2nc3c(=O)n(C)c(=O)n(CC(N)=O)c3nc2n(C)c1=O",
    "TGI": "> 100 µM"
  },
  {
    "COMPOUND": "O=C(C=P(c1ccccc1)(c1ccccc1)c1ccccc1)CCl",
    "TGI": "7.62 µM"
  }
]
